Test system: FASN
Assay: qPCR FASN transcript level in HepG2 cells
Type: cell-based
Details: Homo sapiens, 20 h
Please respond with reported fold induction at 10 µM for every item in the list.

Note fold induction at 10 µM for the compound shown: CN(C)c1ccc2c(c1)[C@@H]1C[C@@H](CC(=O)NCc3ccc(Oc4ccccc4)cc3)O[C@@H](CO)[C@@H]1O2 [Compound 12a]
> 2

Note fold induction at 10 µM for the compound shown: `O=C(C[C@H]1CC[C@@H]2[C@H](COC[C@H](O)CN2Cc2ccc(Oc3ccccc3)cc2)O1)N1CCc2ccccc2C1`
> 2

Note fold induction at 10 µM for the compound shown: O=C(C[C@H]1C[C@H]2c3cc(NC(=O)c4ccc5c(c4)OCO5)ccc3O[C@H]2[C@H](CO)O1)NCc1ccc(Oc2ccccc2)cc1 [Compound 11a]
> 2

Note fold induction at 10 µM for the compound shown: `Cc1cc(C(=O)Nc2ccc3c(c2)C(=O)N(C)[C@H]2CC[C@@H](CC(=O)NCc4ccc(-c5ccccc5)cc4)O[C@@H]2CO3)no1`
> 2

Note fold induction at 10 µM for the compound shown: `CN1C(=O)c2cc(NC(=O)Cc3cccs3)ccc2OC[C@@H]2O[C@H](CC(=O)NCc3ccc(-c4ccccc4)cc3)CC[C@@H]21`
> 2

Note fold induction at 10 µM for the compound shown: O=C(C[C@@H]1CC[C@@H]2[C@H](COC[C@H](O)CN2CCC(F)(F)F)O1)NCc1ccc(Oc2ccccc2)cc1 [Compound 10a]
< 2

Note fold induction at 10 µM for the compound shown: `O=C(C[C@H]1CC[C@H]2[C@@H](COC[C@@H](O)CN2Cc2ccc(Oc3ccccc3)cc2)O1)N1CCc2ccccc2C1`
< 2

Note fold induction at 10 µM for the compound shown: O=C(C[C@H]1C[C@H]2c3cc(NS(=O)(=O)c4ccc(F)cc4)ccc3O[C@H]2[C@H](CO)O1)NCc1ccc(Oc2ccccc2)cc1 [Compound 13a]
< 2

Note fold induction at 10 µM for the compound shown: `O=C(C[C@@H]1CC[C@H]2[C@@H](COC[C@H](O)CN2Cc2ccc(Oc3ccccc3)cc2)O1)N1CCc2ccccc2C1`
> 2

Note fold induction at 10 µM for the compound shown: CC(C)c1c(C(=O)Nc2ccccc2)c(-c2ccccc2)c(-c2ccc(F)cc2)n1CC[C@@H](O)C[C@@H](O)CC(=O)O [Atorvastatin, atorvastatin, reference compound]
< 2

Note fold induction at 10 µM for the compound shown: `CN1C(=O)c2cc(NC(=O)c3ccc(C(F)(F)F)cc3)ccc2OC[C@@H]2O[C@@H](CC(=O)NC3Cc4ccccc4C3)CC[C@@H]21`
> 2

Note fold induction at 10 µM for the compound shown: `O=C(C[C@@H]1CC[C@@H]2[C@H](COC[C@@H](O)CN2CCC(F)(F)F)O1)NCc1ccc(Oc2ccccc2)cc1`
< 2

----------
System: HMGCS
Test: qPCR HMGCS transcript level in HepG2 cells
Assay type: cell-based
Settings: Homo sapiens, 20 h
Protocol: In the primary screen, HepG2 cells were plated in 384-well plates at 2000 cells per well and incubated for 20 hours with each compound in duplicate at 10 microM concentration. Then RNA was isolated, reverse-transcribed to cDNA, and stored at −80° C. Expression levels of TRIB1 and other target genes, such as SORT1 and PCSK9, were determined by quantitative PCR. Relative gene expression level was normalized to expression of the housekeeping gene, GAPDH. […]
Please respond with reported fold induction at 10 µM for every item in the list.

Note fold induction at 10 µM for the molecule shown: CC(C)c1c(C(=O)Nc2ccccc2)c(-c2ccccc2)c(-c2ccc(F)cc2)n1CC[C@@H](O)C[C@@H](O)CC(=O)O [Atorvastatin, atorvastatin, reference compound]
< 2

Note fold induction at 10 µM for the molecule shown: O=C(C[C@H]1C[C@H]2c3cc(NS(=O)(=O)c4ccc(F)cc4)ccc3O[C@H]2[C@H](CO)O1)NCc1ccc(Oc2ccccc2)cc1 [Compound 13a]
> 2

Note fold induction at 10 µM for the molecule shown: `O=C(C[C@@H]1CC[C@@H]2[C@H](COC[C@@H](O)CN2CCC(F)(F)F)O1)NCc1ccc(Oc2ccccc2)cc1`
> 2

Note fold induction at 10 µM for the molecule shown: `O=C(C[C@@H]1CC[C@H]2[C@@H](COC[C@H](O)CN2Cc2ccc(Oc3ccccc3)cc2)O1)N1CCc2ccccc2C1`
> 2

Note fold induction at 10 µM for the molecule shown: `CN1C(=O)c2cc(NC(=O)Cc3cccs3)ccc2OC[C@@H]2O[C@H](CC(=O)NCc3ccc(-c4ccccc4)cc3)CC[C@@H]21`
> 2

Note fold induction at 10 µM for the molecule shown: `O=C(C[C@H]1CC[C@@H]2[C@H](COC[C@H](O)CN2Cc2ccc(Oc3ccccc3)cc2)O1)N1CCc2ccccc2C1`
> 2

Value source: patent US9526720B2
